Values compiled from patent US7902361B2.

- TESTED SYSTEM: CDK9/cyclin T1 (Homo sapiens)
- Sequence (P50750 whole entry, species assumed): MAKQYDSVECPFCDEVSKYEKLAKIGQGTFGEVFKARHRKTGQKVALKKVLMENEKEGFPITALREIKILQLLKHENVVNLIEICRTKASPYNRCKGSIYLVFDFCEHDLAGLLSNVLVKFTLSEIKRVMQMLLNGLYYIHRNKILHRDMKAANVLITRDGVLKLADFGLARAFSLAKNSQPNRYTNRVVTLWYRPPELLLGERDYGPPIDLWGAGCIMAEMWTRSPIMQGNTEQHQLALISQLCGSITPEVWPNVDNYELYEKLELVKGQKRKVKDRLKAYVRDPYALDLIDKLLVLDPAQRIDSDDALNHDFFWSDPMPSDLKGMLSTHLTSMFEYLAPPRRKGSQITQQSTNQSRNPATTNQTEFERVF
- Sequence (O60563 whole entry partner, species assumed): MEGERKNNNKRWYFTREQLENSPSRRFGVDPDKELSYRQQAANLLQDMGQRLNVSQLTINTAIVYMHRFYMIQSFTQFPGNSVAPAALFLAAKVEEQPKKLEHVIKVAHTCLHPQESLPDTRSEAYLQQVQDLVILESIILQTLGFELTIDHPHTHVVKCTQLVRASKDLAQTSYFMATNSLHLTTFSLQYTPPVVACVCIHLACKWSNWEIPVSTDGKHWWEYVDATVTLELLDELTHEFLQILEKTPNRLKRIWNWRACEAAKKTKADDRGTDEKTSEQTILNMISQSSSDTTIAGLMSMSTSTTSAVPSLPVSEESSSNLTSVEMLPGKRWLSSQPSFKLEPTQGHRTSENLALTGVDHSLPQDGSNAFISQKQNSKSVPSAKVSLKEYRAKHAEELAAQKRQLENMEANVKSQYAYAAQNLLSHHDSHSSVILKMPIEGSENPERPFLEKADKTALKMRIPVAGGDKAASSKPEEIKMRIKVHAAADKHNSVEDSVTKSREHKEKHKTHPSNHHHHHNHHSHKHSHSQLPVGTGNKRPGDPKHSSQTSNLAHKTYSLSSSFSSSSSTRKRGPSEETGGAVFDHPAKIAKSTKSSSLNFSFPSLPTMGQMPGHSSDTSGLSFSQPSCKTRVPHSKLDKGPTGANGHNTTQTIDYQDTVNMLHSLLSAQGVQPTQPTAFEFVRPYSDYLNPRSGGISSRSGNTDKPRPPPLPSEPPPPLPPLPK
- TEST METHOD NOTES: Kinase assay CDK9/cyclin T1
- CONDITION INFO: Ki calculated (Cheng-Prusoff) from experimentally determined IC50 and Km,ATP; read-out: Kinase Inhibition Ki CDK9 - cyclin T1
pKi: −log10 of the molar value.
REPORTED ENDPOINT: pKi

>>> print(df.to_string())
                                   compound  test_value
0  Cc1ccc(Nc2nccc(-c3sc(=O)[nH]c3C)n2)cc1[N+](=O)[O-] [Compound 41]        8.05
1  Cc1ccc(Nc2nccc(-c3sc(=O)n(C)c3C)n2)cc1N [Compound 39]        7.85
2  Cc1cc(Nc2nccc(-c3sc(=O)n(C)c3C)n2)ccc1Cl [Compound 15]        7.35
3  COc1ccc(C)c(Nc2nccc(-c3sc(=O)n(C)c3C)n2)c1 [Compound 56]        6.34
4  Cc1c(-c2ccnc(Nc3cccc(C#N)c3)n2)sc(=O)n1C [Compound 16]        8.72

(A) Cc1c(-c2ccnc(Nc3ccc(S(=O)(=O)NCc4ccccc4)cc3)n2)sc(=O)n1C [Compound 73]
(B) CCn1c(C)c(-c2ccnc(Nc3ccc([N+](=O)[O-])cc3)n2)sc1=O [Compound 52]
(C) CCn1c(C)c(-c2ccnc(Nc3ccc(Cl)c(C(=O)OC)c3)n2)sc1=O [Compound 25]
(D) CCn1c(C)c(-c2ccnc(Nc3ccc(N(C)C)c([N+](=O)[O-])c3)n2)sc1=O [Compound 29]
Let's sort these by pKi, smallest first. Go ahead? Please list each label once, in the requested order.
C, A, B, D

###

- TESTED SYSTEM: CDK4/cyclin D1 (Homo sapiens, UniProt P11802)
- Sequence (P11802 whole entry, species assumed): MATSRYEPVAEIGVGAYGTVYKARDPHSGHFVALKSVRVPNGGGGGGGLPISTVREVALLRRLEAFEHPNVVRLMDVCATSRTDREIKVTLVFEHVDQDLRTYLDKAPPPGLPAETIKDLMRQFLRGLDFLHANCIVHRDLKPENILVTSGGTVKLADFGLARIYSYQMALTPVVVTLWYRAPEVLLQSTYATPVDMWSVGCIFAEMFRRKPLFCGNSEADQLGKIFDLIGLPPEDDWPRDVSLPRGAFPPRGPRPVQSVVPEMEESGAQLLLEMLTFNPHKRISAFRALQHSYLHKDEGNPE
- Sequence (P24385 whole entry partner, species assumed): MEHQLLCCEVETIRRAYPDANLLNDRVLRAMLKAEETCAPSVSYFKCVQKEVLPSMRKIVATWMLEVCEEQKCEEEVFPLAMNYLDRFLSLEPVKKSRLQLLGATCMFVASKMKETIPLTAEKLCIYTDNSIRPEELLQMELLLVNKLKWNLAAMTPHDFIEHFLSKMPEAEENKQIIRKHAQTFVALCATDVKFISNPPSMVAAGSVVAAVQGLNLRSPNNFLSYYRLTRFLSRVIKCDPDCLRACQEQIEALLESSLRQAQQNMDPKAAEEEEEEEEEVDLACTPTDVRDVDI
- TEST METHOD NOTES: Kinase assay CDK4/cyclin D1
- CONDITION INFO: Ki calculated (Cheng-Prusoff) from experimentally determined IC50 and Km,ATP; read-out: Kinase Inhibition Ki CDK4 - cyclin D1
REPORTED ENDPOINT: Ki (µM)

Solved cases (4 shown):
>>> print(df.to_string())
                                   compound  test_value
0  CCn1c(C)c(-c2ccnc(Nc3ccc(C)c(O)c3)n2)sc1=O [Compound 47]         1.8
1  Cc1c(-c2ccnc(Nc3ccc(Cl)c(CO)c3)n2)sc(=O)n1C [Compound 18]        0.17
2  CCn1c(C)c(-c2ccnc(Nc3ccc(N(C)C)c([N+](=O)[O-])c3)n2)sc1=O [Compound 29]        0.17
3  Cc1ccc(Nc2nccc(-c3sc(=O)n(C)c3C)n2)cc1[N+](=O)[O-] [Compound 11]        0.38

(I) Cc1c(-c2ccnc(Nc3ccc(N4CCOCC4)cc3)n2)sc(=O)n1C [Compound 9]
(II) Cc1c(-c2ccnc(Nc3cccc(S(=O)(=O)NCCO)c3)n2)sc(=O)n1C [Compound 75]
(III) Cc1c(-c2ccnc(Nc3ccc(Cl)cc3)n2)sc(=O)n1C [Compound 4]
(IV) CC(=O)N1CCN(c2cccc(Nc3nccc(-c4sc(=O)n(C)c4C)n3)c2)CC1 [Compound 49]
(V) Cc1c(-c2ccnc(Nc3cccc(CNS(=O)(=O)C(F)(F)F)c3)n2)sc(=O)n1C [Compound 58]
Let's sort these by Ki, smallest first. Go ahead? Please list each label once, in the requested order.
IV, II, I, III, V
(IV: 0.0097 µM, II: 0.15 µM, I: 0.67 µM, III: 1.6 µM, V: 5.1 µM)
